List of IC50 values.
- target-under-test: cAMP-dependent protein kinase catalytic subunit alpha (Bos taurus, UniProt P00517)
- procedure-summary: CDK Kinase Inhibition Assay
- test-context: 25 °C

Answered cases to consult:
>>> df
                                   compound                         target_under_test  readout_kind  result_value
0  Cn1c2ccccc2c2c3c(c4c5ccc(Br)cc5[nH]c4c21)C(=O)NC3=O  cAMP-dependent protein kinase catalytic subunit alpha (Bos taurus, UniProt P00517)          IC50       > 20 µM
1  Cn1c2ccccc2c2c3c(c4c5ccccc5[nH]c4c21)C(=O)NC3=O  cAMP-dependent protein kinase catalytic subunit alpha (Bos taurus, UniProt P00517)          IC50       > 20 µM
2  Cn1cc(C2=C(c3cn(CC(O)CO)c4ccccc34)C(=O)NC2=O)c2ccccc21 (centres undefined)  cAMP-dependent protein kinase catalytic subunit alpha (Bos taurus, UniProt P00517)          IC50       > 20 µM

## Task What IC50 appears in the records for this compound with cAMP-dependent protein kinase catalytic subunit alpha (Bos taurus, UniProt P00517)? `CN(C)CCCn1cc(C2=C(c3c[nH]c4ccccc34)C(=O)NC2=O)c2ccccc21`
## Result > 20 µM

## Task Under cAMP-dependent protein kinase catalytic subunit alpha (Bos taurus, UniProt P00517): IC50 value of `Cn1cc(C2=C(c3cn(C)c4ccccc34)C(=O)NC2=O)c2ccccc21` ?
## Result > 20 µM

## Task Param readout = IC50; param system = cAMP-dependent protein kinase catalytic subunit alpha (Bos taurus, UniProt P00517); param query = `Cn1c2ccccc2c2c3c(c4c5ccc(F)cc5[nH]c4c21)C(=O)NC3=O` ; response: value
## Result > 20 µM

## Task # returns recorded IC50 (system: cAMP-dependent protein kinase catalytic subunit alpha (Bos taurus, UniProt P00517)) for `O=C1NC(=O)c2c1c1c3ccccc3[nH]c1c1[nH]c3ccccc3c21`
## Result > 20 µM

## Task Test system cAMP-dependent protein kinase catalytic subunit alpha (Bos taurus, UniProt P00517); read-out IC50; what value for `O=C1NC(=O)c2c1c1c3ccccc3[nH]c1c1c2c2ccccc2n1CCCO` ?
## Result > 20 µM

## Task Give IC50 (cAMP-dependent protein kinase catalytic subunit alpha (Bos taurus, UniProt P00517)) of the following compound: `COc1ccc2c(c1)[nH]c1c3[nH]c4cc(OC)ccc4c3c3c(c21)C(=O)NC3=O`
## Result > 20 µM

---

- target-under-test: Cyclin-dependent kinase 4/G1/S-specific cyclin-D1 (Homo sapiens)
- Sequence (P11802 whole entry): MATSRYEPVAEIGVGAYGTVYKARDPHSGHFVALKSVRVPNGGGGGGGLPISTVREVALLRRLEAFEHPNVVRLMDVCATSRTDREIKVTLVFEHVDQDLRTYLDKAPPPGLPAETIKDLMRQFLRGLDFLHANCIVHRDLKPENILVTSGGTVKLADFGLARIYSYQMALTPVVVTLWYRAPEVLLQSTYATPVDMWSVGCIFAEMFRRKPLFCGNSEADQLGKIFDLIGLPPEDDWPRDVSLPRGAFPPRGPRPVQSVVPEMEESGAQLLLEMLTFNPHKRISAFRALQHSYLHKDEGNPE
- Sequence (P24385 whole entry, further chain): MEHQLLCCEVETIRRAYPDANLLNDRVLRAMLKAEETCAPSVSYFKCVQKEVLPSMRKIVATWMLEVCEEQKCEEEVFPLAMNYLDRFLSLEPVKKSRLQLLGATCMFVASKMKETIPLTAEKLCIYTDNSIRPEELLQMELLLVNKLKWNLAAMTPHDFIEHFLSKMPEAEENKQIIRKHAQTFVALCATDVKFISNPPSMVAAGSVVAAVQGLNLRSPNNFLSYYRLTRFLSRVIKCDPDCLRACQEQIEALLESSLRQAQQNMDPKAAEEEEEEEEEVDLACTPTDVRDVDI
- procedure-summary: CDK Kinase Inhibition Assay
- test-context: pH 7; 22 °C
# IC50 per record follows
Respond with the figure and its unit, in that order.

                           smiles_structure  result_value
0  O=C1NC(=O)c2c1c1c3ccccc3n3c1c1c2c2ccccc2n1[C@H]1CC[C@@H]3O1        540 nM

Now take the following molecule into account.
## Task Hello, I am looking for reported IC50 with Cyclin-dependent kinase 4/G1/S-specific cyclin-D1 (Homo sapiens) for `COC(=O)[C@@]1(O)C[C@H]2O[C@]1(C)n1c3ccccc3c3c4c(c5c6ccccc6n2c5c31)C(=O)NC4` . Could you help?
## Result 30 nM
